B1: Homeobox protein SIX3, residues 212 to 262; numbered along this chain, O95343 (parent)
chain: CFKERTRSLLREWYLQDPYPNPSKKRELAQATGLTPTQVGNWFKNRRQRDR

# Variants of: B1
# PROTOCOL TEXT: abundance fitness (aPCA) (normalised: wild type 0, dead -1); higher = more abundant; growth selection in yeast, the domain comes from the species named
# TEST CONDITIONS: Homo sapiens
QUANTITY: abundance fitness

INSERT INTO results (mutation_name, result_value) VALUES
  ('E27N', -0.947),
  ('P36D', -0.638),
  ('R26L', 0.158),
  ('E27F', -0.276),
  ('T35F', -0.77),
  ('A29G', -0.468),
  ('T32M', -0.59),
  ('S23K', -0.512);

Numbers sourced from the Human Domainome abundance scans (Beltran et al. 2025).
